Values compiled from PubChem BioAssay (NCI).

test: NCI Yeast Anticancer Drug Screen. Data for the cln2 rad14 strain (AID 165);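 note: 0% = growth equal to vehicle treated cultures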
particulars: S. cerevisiae cln2 rad14 strain, at 50.0 µM
The panel holds about 79,000 compounds, 15% with a hit somewhere; the sample as a whole holds those more often. Active and inactive are the calls of the source. Cut-off read from the data, not from the text of the source: active = growth inhibition above about 70%; inactive = the rest.
// allowed return values: active, inactive

Some solved cases for reference:
molecule	assignedLabel
O=S(=O)(NC1CCCCC1)c1ccc2c(c1)OCCOCCOCCOCCO2	inactive
CCC(N)(CO)CO	active
N#CCc1ccc2c(c1)Sc1ccccc1O2	inactive
c1cc(SSc2ccncc2)ccn1	inactive
Nc1nc(-c2cc3cc(Cl)ccc3o2)cs1	inactive
CCOC(=O)c1cc(C)c(O)c(C(=O)OCC)c1	inactive
Cc1ccccc1NC(=S)Nc1ccccc1O	inactive
CC(=O)OC1OC2C(NC(=O)OC(C)(C)C)C1CC2(OCc1ccccc1)OCc1ccccc1 (stereo not drawn)	inactive
O=C(OCc1ccccc1)c1ccccc1Cl	inactive
O=C1/C(=C/c2ccccc2)CN(C(=O)CCN2CCCC2)C/C1=C\c1ccccc1	active

Ask | Would you mind telling me which call this test gave `Cc1cc(=O)n(C)c2c(C)cccc12` ?
Reply | inactive

Ask | Would you mind telling me which call this test gave `NC(=O)C12OC3CC(CC(C3)O1)O2` ?
Reply | active

Ask | Would you mind telling me which call this test gave NC1c2ccccc2-c2ccc([N+](=O)[O-])cc21 (stereo not drawn) ?
Reply | inactive

* * *

test: NCI Yeast Anticancer Drug Screen. Data for the bub3 strain (AID 167)
particulars: S. cerevisiae bub3 mutant strain, at 50.0 µM
Compounds without any hit were thinned out: in the full panel of roughly 79,000, 15% have a hit. The source made the active and inactive calls. No stated cut-off is given here; in the data, active means growth inhibition above about 70%; inactive means the rest.
// allowed return values: Yes (active), No (inactive)

Some solved cases for reference:
compound	assignedLabel
Cc1ccc(S(=O)(=O)OCCc2ccc(Cl)cc2)cc1	Yes
CSC(=N)N1N=C2/C(=C/c3ccccc3)CCC[C@H]2[C@H]1c1ccccc1	No
c1ccc(-c2nc3nc4ccccc4nc3nc2-c2ccccn2)nc1	No
CCN1/C(=C/C(C)=C/c2sc3ccccc3[n+]2CC)Sc2ccccc21	Yes

# ---- query compound ----
Ask | Would you mind telling me which call this test gave CCCCCNc1ccc2c(cc1=O)C(NC(C)=O)CCc1cc(OC)c(OC)c(OC)c1-2 (stereo not given) ?
Reply | No

* * *

test: NCI Yeast Anticancer Drug Screen. Data for the mec2-1 strain (AID 157)
particulars: S. cerevisiae mec2-1 strain, at 50.0 µM (retest, dose inferred, filed as 5.0)
About 79,000 compounds went through this panel and 15% of them were active in at least one assay; those are over-represented in the sample as a whole. Calls of active or inactive are those of the source. Cut-off read from the data, not from the text of the source: active = growth inhibition above about 70%; inactive = the rest.
// allowed return values: active, inactive

Some solved cases for reference:
molecule	assignedLabel
CC12C=C3CC(OC(=O)c4ccccc4)CCC3(O1)c1ccccc12 (stereo not drawn)	active
CCCC/C=C1\CCC(CN2CCCCC2)C1=O (stereo not drawn)	inactive
Nc1ccc(Cl)c2cccnc12	active
CN(C)CCCC(C#N)(CCCN(C)C)c1ccccc1	inactive

Ask | Would you mind telling me which call this test gave OC(CCN1CCCCC1)(Cc1ccccc1)c1cccc(Cl)c1 (stereo not drawn) ?
Reply | inactive

Ask | Would you mind telling me which call this test gave CCCC#CC(O)(C(=O)OC1CCN(C)CC1)C1CCCCC1 (stereo not drawn) ?
Reply | inactive

Ask | Would you mind telling me which call this test gave CC(O)C(O)C(O)C(O)C(O)C(=O)O (stereo not drawn) ?
Reply | inactive

Ask | Would you mind telling me which call this test gave `CCN(CC)CCNc1ccc(C)c2sc3c(OC)cccc3c(=O)c12` ?
Reply | inactive

* * *

test: NCI Yeast Anticancer Drug Screen. Data for the bub3 strain (AID 167)
particulars: S. cerevisiae bub3 mutant strain, at 5.0 µM (retest, dose inferred, filed as 0.5), hits give high values
The panel holds about 79,000 compounds, 15% with a hit somewhere; the sample as a whole holds those more often.
Attribute: growth inhibition
Provide the reading as a plain figure in %.

Example entries and their recorded answers appear below.
compound	numericResult
Clc1ccc(CN2COc3c(ccc4ccccc34)C2)cc1	-4
O=S1(=O)c2ccccc2C(Br)C1Br (stereo unspecified)	25
Nc1cc(S(=O)(=O)O)cc2cc(S(=O)(=O)O)c(N=Nc3ccccc3)c(O)c12	-36
O=C(CCl)Oc1ccc(Sc2ccc(OC(=O)CCl)cc2)cc1	1

Ask | What does the record list as growth inhibition for `CCC(=O)Oc1c(Br)c(Br)c(Br)c(Br)c1Br` ?
Reply | 56

Ask | What does the record list as growth inhibition for `CN(C(=O)c1ccccc1)C1(COC(=O)c2ccccc2)CCCCC1` ?
Reply | 21

Ask | What does the record list as growth inhibition for CC(Br)C(=O)c1ccc(OCc2ccccc2)cc1 (stereo unspecified) ?
Reply | 6

* * *

test: NCI Yeast Anticancer Drug Screen. Data for the mec2-1 strain (AID 157)
particulars: S. cerevisiae mec2-1 strain, at 5.0 µM (retest, dose inferred, filed as 0.5), hits give high values
This is part of a sample that, as a whole, favours compounds with a hit. Of some 79,000 tested, about 15% had one in any assay.
Binary call on growth inhibition: T from 10% upward, F beneath that.

Some solved cases for reference:
compound	assignedLabel
CCCCN(CCCC)CCC(O)c1cc2c(c3ccccc13)CCCC2 (stereo not given)	F
COC1=C(/C(=N/Nc2ccc([N+](=O)[O-])cc2[N+](=O)[O-])c2ccccc2)COC1=O	F
CC(Br)C(=O)c1ccc(OCc2ccccc2)cc1 (stereo not given)	T
Cn1c(=S)c2[nH]c(=S)[nH]c2n(C)c1=O	T
Oc1c(Cl)cc(Cl)cc1C=Nc1cc(C(F)(F)F)ccc1Cl	T

Ask | Exam item: decide whether the reported growth inhibition for `CCCN(CCC)c1ccc(/C=C/c2ccnc3ccccc23)cc1` is at least 10%.
Reply | F

Ask | Exam item: decide whether the reported growth inhibition for CCOC(=O)Nc1cc2c(cc1Br)-c1ccccc1C2O (stereo not given) is at least 10%.
Reply | F

* * *

test: NCI Yeast Anticancer Drug Screen. Data for the cln2 rad14 strain (AID 165);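 note: 0% = growth equal to vehicle treated cultures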
particulars: S. cerevisiae cln2 rad14 strain, at 50.0 µM, hits give high values
The panel holds about 79,000 compounds, 15% with a hit somewhere; the sample as a whole holds those more often.
Attribute: growth inhibition
Provide the reading as a plain figure in %.

Example entries and their recorded answers appear below.
compound	measurementName	endpointUnit	numericResult
CC(C)(C)CC(C)(C)N[P+](NC(C)(C)CC(C)(C)C)(NC(C)(C)CC(C)(C)C)NC(C)(C)CC(C)(C)C	growth inhibition	%	90.7
O=C(O)c1ccc2cc3ccccc3cc2c1	growth inhibition	%	61.9
CCCCCCCCCCS(=O)(=O)Nc1ccc(C(=O)NN)cc1	growth inhibition	%	91
Cc1cc(S(=O)(=O)Nc2nc(N)nc(N(C)C)n2)c(SC(C(=O)O)c2ccccc2)cc1Cl (stereo unspecified)	growth inhibition	%	93.2
CCOC(=O)c1c(Br)c(-c2ccc(Br)cc2)c(Br)n1C	growth inhibition	%	24.1

In the following, a different compound is considered.
Ask | What does the record list as growth inhibition for CC=CCOc1cc(NC(=S)OC(C)C)ccc1Cl (mixture of isomers) ?
Reply | 90

* * *

test: NCI Yeast Anticancer Drug Screen. Data for the rad50 strain (AID 155);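 note: 0% = growth of vehicle-only cultures of the same strain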
particulars: S. cerevisiae rad50 strain growth inhibition; at 5.0 µM (retest, dose inferred, filed as 0.5); hits give high values
This is part of a sample that, as a whole, favours compounds with a hit. Of some 79,000 tested, about 15% had one in any assay. The source made the active and inactive calls. No stated cut-off is given here; in the data, active means growth inhibition above about 70%; inactive means the rest.
Attribute: growth inhibition

compound	growth inhibition
COc1ccc(C(c2cc3c(cc2O)OCO3)N2CCCC2)c(OC)c1 (stereo unspecified)	10% (inactive)
CCOC(=O)/C=C(/Cl)C(=O)OCC	12% (inactive)
Nc1ccccc1CC(c1c[nH]c2ccccc12)c1c[nH]c2ccccc12	4% (inactive)

Ask | What does the record list as growth inhibition for `Fc1ccc(NC(=S)SCc2ccc(Cl)cc2)c(F)c1` ?
Reply | 19% (inactive)

Ask | What does the record list as growth inhibition for `O=S(=O)(Nc1ccccc1)c1ccccc1C=C(c1ccccc1)c1ccccc1` ?
Reply | 37% (inactive)

Ask | What does the record list as growth inhibition for `Cc1ccc(S(=O)(=O)Oc2c([N+](=O)[O-])cc(C)cc2[N+](=O)[O-])cc1` ?
Reply | 29% (inactive)

Ask | What does the record list as growth inhibition for `Nc1ccc(O)c(=O)cc1` ?
Reply | -1% (inactive)

Ask | What does the record list as growth inhibition for OC1c2ccccc2C2(O)C1C(c1ccccc1)C(c1ccccc1)C2(O)c1ccccc1 (stereo unspecified) ?
Reply | 32% (inactive)

* * *

test: NCI Yeast Anticancer Drug Screen. Data for the sgs1 mgt1 strain (AID 161);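 note: 0% = growth of cultures given vehicle only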
particulars: S. cerevisiae sgs1 mgt1 strain, at 50.0 µM (retest, dose inferred, filed as 5.0)
Description: Growth inhibition of yeast strains with defined genetic alterations is measured as a screen for potential anti-cancer activity. Selected strains with alterations in DNA damage repair or cell cycle control were exposed to compounds and growth inhibition was measured relative to vehicle treated controls. The strain used in this assay is sgs1 mgt1
This is part of a sample that, as a whole, favours compounds with a hit. Of some 79,000 tested, about 15% had one in any assay. The source made the active and inactive calls. Cut-off read from the data, not from the text of the source: active = growth inhibition above about 70%; inactive = the rest.
// allowed return values: 1 (yes) = active, 0 (no) = inactive

Some solved cases for reference:
molecule	assignedLabel
Cc1c(Cl)ccc2c(C(O)CNCc3ccccc3)cc(-c3ccc(Cl)cc3)nc12 (stereo not given)	1 (yes)
O=S1(=O)c2ccccc2C(Br)C1Br (stereo not given)	1 (yes)
O=C(O)C(Cc1ccccc1)N=Cc1ccc(O)cc1 (stereo not given)	1 (yes)
Clc1ccc([I+]c2cccs2)cc1	1 (yes)
CC(C)C(=O)c1ccc([N+](=O)[O-])o1	1 (yes)
CC(C)(C)OC(=O)N(CCCCNC(=O)OCc1ccccc1)CCCNC(=O)OCc1ccccc1	0 (no)
Cc1ccc(S(=O)/C=C/S(=O)(=O)c2ccc(C)cc2)cc1 (stereo not given)	1 (yes)
CC(=O)n1c(=S)n(C(C)=O)c2ccccc21	1 (yes)

Ask | Would you mind telling me which call this test gave `O=C(NCCCl)N1CCC(CN=c2cc3n(-c4ccc(Cl)cc4)c4ccccc4nc-3cc2Nc2ccc(Cl)cc2)CC1` ?
Reply | 1 (yes)

Ask | Would you mind telling me which call this test gave `CCCN(CCC)C(=O)CCC(C)=O` ?
Reply | 0 (no)

Ask | Would you mind telling me which call this test gave `O=C(C1=Cc2ccccc2OC1)N1CCN(c2cccc(Cl)c2)CC1` ?
Reply | 1 (yes)

Ask | Would you mind telling me which call this test gave CC(=O)C1CCC2C3CC(F)C4(O)CC(O)CCC4(C)C3CCC12C (stereo not given) ?
Reply | 1 (yes)

Ask | Would you mind telling me which call this test gave `CCSC(=S)NC(=O)c1ccccc1` ?
Reply | 0 (no)

Ask | Would you mind telling me which call this test gave `CCOC(=O)/C(=C\c1ccc(Cl)cc1)C(C)=O` ?
Reply | 1 (yes)

Ask | Would you mind telling me which call this test gave CC(=O)OC1C(OC(C)=O)C2C(C)CC3OC(=O)C(C)C3CC2(C)C1OC(C)=O (stereo not given) ?
Reply | 0 (no)
